# test details: Selectivity index, ratio of CC50 for human MT4 cells to EC50 for antiviral activity against HIV RES056
# Type: toxicity
# conditions: read-out: Ratio CC50/EC50
readout type: selectivity ratio

Solved entries:
1. Cc1cc(C)cc(S(=O)(=O)c2c(C(=O)N[C@@H]3CCN(CC(N)=O)C3)[nH]c3ccc(Cl)cc23)c1 < 1
2. CCOP(=O)(CCNC(=O)c1[nH]c2ccc(Cl)cc2c1S(=O)(=O)c1cc(C)cc(C)c1)OCC < 1
3. Cc1cc(C)cc(S(=O)(=O)c2c(C(=O)N[C@@H]3CCN(Cc4cccnc4)C3)[nH]c3ccc(Cl)cc23)c1 < 1
4. Cc1cc(C)cc(S(=O)(=O)c2c(C(=O)N[C@@H]3CCN(S(C)(=O)=O)C3)[nH]c3ccc(Cl)cc23)c1 3
5. Nc1ccn([C@@H]2CS[C@H](CO)O2)c(=O)n1 > 16

Batch: selectivity ratio for all items listed.
1. Cc1cn([C@H]2C[C@H](N=[N+]=[N-])[C@@H](CO)O2)c(=O)[nH]c1=O
2. Cc1cc(C)cc(S(=O)(=O)c2c(C(=O)NS(=O)(=O)C(F)(F)F)[nH]c3ccc(Cl)cc23)c1

Output line:
["> 645", "< 1"]

Look up selectivity ratio for the entries below, preserving their order.
1. Cc1cc(C)cc(S(=O)(=O)c2c(C(=O)N[C@@H]3CCNC3)[nH]c3ccc(Cl)cc23)c1
2. Cc1cc(C)cc(S(=O)(=O)c2c(C(=O)N[C@H]3CCN(S(C)(=O)=O)C3)[nH]c3ccc(Cl)cc23)c1
3. Cc1cc(C)cc(S(=O)(=O)c2c(C(=O)N[C@@H]3CCN(Cc4n[nH]c(=O)n4C)C3)[nH]c3ccc(Cl)cc23)c1
4. Cc1cc(C)cc(S(=O)(=O)c2c(C(=O)N[C@H]3CCN(Cc4n[nH]c(=O)n4C)C3)[nH]c3ccc(Cl)cc23)c1
5. Cc1cc(C)cc(S(=O)(=O)c2c(C(N)=O)[nH]c3ccc(Cl)cc23)c1
6. Cc1cc(C)cc(S(=O)(=O)c2c(C(=O)N[C@H]3CCN(CC(N)=O)C3)[nH]c3ccc(Cl)cc23)c1
7. Cc1cc(C)cc(S(=O)(=O)c2c(C(=O)NC3CN(CC(N)=O)C3)[nH]c3ccc(Cl)cc23)c1
8. Cc1cc(C)cc(S(=O)(=O)c2c(C(=O)N[C@H]3CCN(Cc4ccccc4C#N)C3)[nH]c3ccc(Cl)cc23)c1

Output line:
1. < 1
2. < 1
3. < 1
4. < 1
5. < 1
6. < 1
7. < 1
8. > 1

// each listed molecule needs a value for selectivity ratio
1. Cc1cc(C)cc(S(=O)(=O)c2c(C(=O)NC3CN(Cc4cccnc4)C3)[nH]c3ccc(Cl)cc23)c1
2. Cc1cc(C)cc(S(=O)(=O)c2c(C(=O)N[C@H]3CCNC3)[nH]c3ccc(Cl)cc23)c1
3. Cc1cc(C)cc(S(=O)(=O)c2c(C(=O)NC3CNC3)[nH]c3ccc(Cl)cc23)c1
4. Cc1cc(C)cc(S(=O)(=O)c2c(C(=O)NC3CN(Cc4n[nH]c(=O)n4C)C3)[nH]c3ccc(Cl)cc23)c1
5. CCCS(=O)(=O)NC(=O)c1[nH]c2ccc(Cl)cc2c1S(=O)(=O)c1cc(C)cc(C)c1
6. Cc1cc(C)cc(S(=O)(=O)c2c(C(=O)NS(=O)(=O)C3CC3)[nH]c3ccc(Cl)cc23)c1
7. Cc1cc(C#N)cc(C)c1Oc1nc(Nc2ccc(C#N)cc2)nc(N)c1Br
8. Cc1cc(C)cc(S(=O)(=O)c2c(C(=O)NS(=O)(=O)c3ccccc3)[nH]c3ccc(Cl)cc23)c1

Output line:
1. < 1
2. < 1
3. < 1
4. > 224
5. < 1
6. < 1
7. > 238
8. < 1

Give selectivity ratio for each listed item.
1. Cc1cc(C)cc(S(=O)(=O)c2c(C(=O)NS(C)(=O)=O)[nH]c3ccc(Cl)cc23)c1
2. Cc1cc(C)cc(S(=O)(=O)c2c(C(=O)N[C@H]3CCN(Cc4cccnc4)C3)[nH]c3ccc(Cl)cc23)c1
3. Cc1cc(C)cc(S(=O)(=O)c2c(C(=O)N[C@H]3CCN(Cc4ccccc4F)C3)[nH]c3ccc(Cl)cc23)c1
4. Cc1cc(C)cc(S(=O)(=O)c2c(C(=O)NC3CN(Cc4ccccc4C#N)C3)[nH]c3ccc(Cl)cc23)c1
5. Cc1cc(C)cc(S(=O)(=O)c2c(C(=O)NS(=O)(=O)c3ccc(F)cc3F)[nH]c3ccc(Cl)cc23)c1
6. Cc1cc(C)cc(S(=O)(=O)c2c(C(=O)NS(=O)(=O)c3ccc(F)cc3)[nH]c3ccc(Cl)cc23)c1
7. Cc1cc(C)cc(S(=O)(=O)c2c(C(=O)NC3CN(Cc4ccccc4F)C3)[nH]c3ccc(Cl)cc23)c1

Output line:
1. ≤ 4
2. < 1
3. < 1
4. > 4
5. < 1
6. < 1
7. > 4

---

Please provide measured EC50 for the entries that follow.
# System: Human immunodeficiency virus 1
# test details: Antiviral activity against drug resistant HIV-1 harboring reverse transcriptase F227L/V106A double mutant infected in human MT4 cells assessed as reduction in virus-induced cytopathic effect incubated for 5 days by MTT assay
# Format: functional, organism-based
# conditions: Human immunodeficiency virus 1, MT4, 120 h
Answers are plain numbers, in µM.

Answered examples (5):
1. CCOP(=O)(CCNC(=O)c1[nH]c2ccc(Cl)cc2c1S(=O)(=O)c1cc(C)cc(C)c1)OCC 7.25
2. Cc1cc(C)cc(S(=O)(=O)c2c(C(=O)NS(=O)(=O)c3ccc(F)cc3F)[nH]c3ccc(Cl)cc23)c1 30
3. O=C1Nc2ccc(Cl)cc2[C@@](C#CC2CC2)(C(F)(F)F)O1 0.25
4. Cc1cn([C@H]2C[C@H](N=[N+]=[N-])[C@@H](CO)O2)c(=O)[nH]c1=O 0.0049
5. CCCS(=O)(=O)NC(=O)c1[nH]c2ccc(Cl)cc2c1S(=O)(=O)c1cc(C)cc(C)c1 20.6

List reported EC50 for each of these molecules:
1. Cc1cc(C)cc(S(=O)(=O)c2c(C(=O)NC3CN(Cc4n[nH]c(=O)n4C)C3)[nH]c3ccc(Cl)cc23)c1
2. Cc1cc(C)cc(S(=O)(=O)c2c(C(=O)N[C@H]3CCN(CC(N)=O)C3)[nH]c3ccc(Cl)cc23)c1

Output line:
1.17
0.094

---

# Test system: Human immunodeficiency virus 1
# test details: Antiviral activity against HIV-1 3B infected in human MT4 cells assessed as reduction in virus-induced cytopathic effect incubated for 5 days by MTT assay
# Format: functional, organism-based
# conditions: Human immunodeficiency virus 1, 3B, MT4, 120 h
# label = Yes if EC50 < 0.02 µM else No

1. Cc1cc(C)cc(S(=O)(=O)c2c(C(=O)N[C@@H]3CCN(Cc4n[nH]c(=O)n4C)C3)[nH]c3ccc(Cl)cc23)c1 No
2. Cc1cc(C)cc(S(=O)(=O)c2c(C(=O)N[C@@H]3CCNC3)[nH]c3ccc(Cl)cc23)c1 No

Continue with the next molecule.
Input line: Regarding "Cc1cc(C)cc(S(=O)(=O)c2c(C(=O)NC3CN(CC(N)=O)C3)[nH]c3ccc(Cl)cc23)c1" , kindly confirm whether its EC50 is beneath 0.02 µM.
Output line: Yes

---

# test details: Cytotoxicity against human MT4 cells assessed as reduction in cell viability incubated for 5 days by MTT assay
# Format: cell-based
readout type: CC50 at 120 h (µM)
Answers are plain numbers, in µM.

1. Cc1cc(C)cc(S(=O)(=O)c2c(C(=O)N[C@H]3CCN(S(C)(=O)=O)C3)[nH]c3ccc(Cl)cc23)c1 29.9

Answer for every listed entry: what is its CC50 at 120 h? The entries follow.
1. CCOP(=O)(CCNC(=O)c1[nH]c2ccc(Cl)cc2c1S(=O)(=O)c1cc(C)cc(C)c1)OCC
2. Cc1cc(C)cc(S(=O)(=O)c2c(C(=O)NC3CN(CC(N)=O)C3)[nH]c3ccc(Cl)cc23)c1
3. Cc1cc(C)cc(S(=O)(=O)c2c(C(=O)N[C@@H]3CCNC3)[nH]c3ccc(Cl)cc23)c1
4. Cc1cc(C)cc(S(=O)(=O)c2c(C(=O)NC3CN(Cc4cccnc4)C3)[nH]c3ccc(Cl)cc23)c1

Output line:
1: 131; 2: 25.5; 3: 37.3; 4: 36

Hi! Can you tell me CC50 at 120 h for each of these compounds?
1. Cc1cc(C)cc(S(=O)(=O)c2c(C(N)=O)[nH]c3ccc(Cl)cc23)c1
2. Cc1cc(C)cc(S(=O)(=O)c2c(C(=O)N[C@H]3CCNC3)[nH]c3ccc(Cl)cc23)c1

Output line:
1. 13
2. 10

---

# test details: Cytotoxicity against human MT4 cells assessed as reduction in cell viability incubated for 5 days by MTT assay
# Format: cell-based
readout type: CC50 at 120 h (µM)
Numbers only, in µM.

Examples from the recorded data:
1) Cc1cc(C)cc(S(=O)(=O)c2c(C(=O)N[C@H]3CCN(Cc4n[nH]c(=O)n4C)C3)[nH]c3ccc(Cl)cc23)c1 21.4
2) Cc1cc(C)cc(S(=O)(=O)c2c(C(=O)N[C@H]3CCN(Cc4cccnc4)C3)[nH]c3ccc(Cl)cc23)c1 22.8
3) Cc1cc(C)cc(S(=O)(=O)c2c(C(=O)N[C@H]3CCN(CC(N)=O)C3)[nH]c3ccc(Cl)cc23)c1 28.1
4) Cc1cc(C)cc(S(=O)(=O)c2c(C(=O)NS(=O)(=O)C3CC3)[nH]c3ccc(Cl)cc23)c1 147
5) Cc1cc(C)cc(S(=O)(=O)c2c(C(=O)N[C@@H]3CCN(Cc4cccnc4)C3)[nH]c3ccc(Cl)cc23)c1 36.5
6) Cc1cc(C)cc(S(=O)(=O)c2c(C(=O)NC3CNC3)[nH]c3ccc(Cl)cc23)c1 37.3

// next entry
Input line: Any idea what CC50 at 120 h was measured for "Cc1cc(C)cc(S(=O)(=O)c2c(C(=O)N[C@@H]3CCN(CC(N)=O)C3)[nH]c3ccc(Cl)cc23)c1" ?
Output line: 31
